Values from ChEMBL document CHEMBL4689842

Tested on: U2OS
assay procedure: Multiplex assay against U2OS
Format: toxicity, cell-based
cond: human, 24 h, 10 µM, compound concentration 10 uM, replicate 1
Labelling field: enter 1.0 if recorded Population Hoechst High Intensity Objects (%) is less than 2%. Enter 0.0 if it equals or exceeds that cut-off.

### Prompt I'd appreciate it if you could check whether NC(=O)c1cccc(-c2cc(Nc3ccc(OC(F)(F)F)cc3)ncn2)c1 has Population Hoechst High Intensity Objects (%) smaller than 2%.
### Response 1.0

### Prompt Also CN1CCC(=C2c3ccccc3CC(=O)c3sccc32)CC1.O=C(O)/C=C/C(=O)O [KETOTIFEN FUMARATE] ?
### Response 0.0

### Prompt Also COc1ccc(-c2ccc3c(N4CCOCC4)nc(N4C[C@@H](C)O[C@@H](C)C4)nc3n2)cc1CO ?
### Response 0.0

### Prompt Also CCc1cccc(CC)c1NC(=O)c1nn(C)c2c1CCc1cnc(Nc3ccc(C(=O)NC4CCN(C)CC4)cc3OC(F)(F)F)nc1-2 ?
### Response 0.0

### Prompt Also C=CCn1c(=O)c2cnc(Nc3ccc(N4CCN(C)CC4)cc3)nc2n1-c1cccc(C(C)(C)O)n1 ?
### Response 0.0

### Prompt Also Cn1nc(C(=O)NCc2ccc(C(=O)O)cc2)cc1-c1ccc2[nH]ccc2c1 ?
### Response 1.0

### Prompt Also CCn1c(=O)c(-c2ccc(-c3cncs3)cc2Cl)cc2cnc(Nc3ccc(N4CCN(C)CC4)cc3)nc21 ?
### Response 0.0

### Prompt Also Cc1cc(C)c(S(=O)(=O)N(Cc2ccc(-c3cccc(S(C)(=O)=O)c3)cc2)Cc2ccc(C(F)(F)F)o2)c(C)c1 ?
### Response 0.0

### Prompt Also O=C(Nc1cccnn1)N1CCC(=Cc2cccc(Oc3ccc(C(F)(F)F)cn3)c2)CC1 ?
### Response 0.0

### Prompt Also COC(=N)c1nc2ccc3ncnc(Nc4ccc(OC)cc4F)c3c2s1 ?
### Response 1.0

### Prompt Also Cc1ccc(C(=O)Nc2cccc(C(F)(F)F)c2)cc1Nc1nc(-c2cccnc2)nc2c1cnn2C ?
### Response 0.0

### Prompt Also CCCS(=O)(=O)c1nc(NC2CC2)cc(-c2ccc3c(ccn3C3CC(C)(C)NC(C)(C)C3)c2)n1 ?
### Response 0.0

### Prompt Also O=C(Nc1ccc(-c2ccnc(Nc3ccc(N4CCOCC4)cc3)n2)cc1)[C@@H]1CCCN1 ?
### Response 0.0

### Prompt Also Cn1nc(C(F)(F)F)cc1-c1cnc(N2CCc3cc(S(=O)(=O)Nc4c(F)cc(Cl)cc4F)cc(N4CCCC4=O)c32)nc1 ?
### Response 1.0

### Prompt Also CN(C)C(=O)C(CCN1CCC(O)(c2ccc(Cl)cc2)CC1)(c1ccccc1)c1ccccc1.Cl [LOPERAMIDE HYDROCHLORIDE] ?
### Response 0.0

### Prompt Also C=C1/C(=C\C=C2/CCC[C@]3(C)[C@@H]([C@H](C)/C=C/[C@H](C)C(C)C)CC[C@@H]23)C[C@@H](O)C[C@@H]1O ?
### Response 0.0

### Prompt Also CCc1cccc(CC)c1NC(=O)c1nn(C)c2c1CCc1cnc(Nc3ccc(N4CCN(C)CC4)cc3OC)nc1-2 ?
### Response 1.0

### Prompt Also O=C1N/C(=N/c2ccccc2F)S/C1=C\c1ccc(C(=O)O)cc1 ?
### Response 0.0

### Prompt Also CN1C2CCC1CC(OC(c1ccc(F)cc1)c1ccc(F)cc1)C2.Cl (configuration not stated) ?
### Response 0.0

### Prompt Also COCC(=O)NC/C=C/c1ccc2ncnc(Nc3ccc(Oc4ccc(C)nc4)c(C)c3)c2c1 ?
### Response 0.0

### Prompt Also CNC(=O)c1ccc(Nc2nc(OC3CCCC3)c3c(-c4ccc5nc(C)oc5c4)c[nH]c3n2)c(OC)c1 ?
### Response 1.0

### Prompt Also S=C(NCCCc1c[nH]cn1)NCCCN(Cc1ccc(Cl)c(Cl)c1)c1ccc(Br)cn1 ?
### Response 0.0

### Prompt Also Cl.O=c1c2cccn2c2ccccc2n1CCCN1CCC(c2ccc(Cl)cc2)CC1 ?
### Response 0.0

====

System: Fibroblast
assay procedure: Multiplex assay against human fibroblast
Assay type: toxicity, cell-based
cond: 24 h, 1 µM, compound concentration 1 uM, replicate 1
measured parameter: Population Mitochondria Different-Phenotype (%)
Could you kindly put the unit after your number?

### Prompt Consider the compound shown here: COc1ccc(-c2ccc3c(N4CCOCC4)nc(N4C[C@@H](C)O[C@@H](C)C4)nc3n2)cc1CO [Ku-0063794] What is its recorded Population Mitochondria Different-Phenotype (%)?
### Response 2%

### Prompt Also COC(=N)c1nc2ccc3ncnc(Nc4ccc(OC)cc4F)c3c2s1 ?
### Response 6%

### Prompt Also CN1C2CCC1CC(OC(c1ccc(F)cc1)c1ccc(F)cc1)C2.Cl (stereo not given) ?
### Response 4%

### Prompt Also CCOC(=O)c1c(C)[nH]c2ccc3c(c12)CN1CCc2cc(OC)ccc2C1O3 (stereo not given) ?
### Response 13%

### Prompt Also CCc1cccc(CC)c1NC(=O)c1nn(C)c2c1CCc1cnc(Nc3ccc(C(=O)NC4CCN(C)CC4)cc3OC(F)(F)F)nc1-2 ?
### Response 5%

====

I'd be grateful if you could share measured Total Cell Count for these entries.
System: U2OS
assay procedure: Multiplex assay against U2OS
Format: toxicity, cell-based
cond: human, 24 h, 1 µM, compound concentration 1 uM, replicate 2
Lab note: write the figure by itself, no unit.

### Prompt Consider the compound shown here: CCCn1c(=O)c2[nH]c(-c3cnn(Cc4cccc(C(F)(F)F)c4)c3)nc2n(CC)c1=O What is its recorded Total Cell Count?
### Response 81

### Prompt Also CN(C)C(=O)C(CCN1CCC(O)(c2ccc(Cl)cc2)CC1)(c1ccccc1)c1ccccc1.Cl [LOPERAMIDE HYDROCHLORIDE] ?
### Response 68

### Prompt Also O=C(Nc1ccc(-c2ccnc(Nc3ccc(N4CCOCC4)cc3)n2)cc1)[C@@H]1CCCN1 ?
### Response 63

### Prompt Also CCN1CCN(Cc2ccc(Nc3ncc(F)c(-c4cc(F)c5nc(C)n(C(C)C)c5c4)n3)nc2)CC1.CS(=O)(=O)O ?
### Response 75

====

I'd be grateful if you could share measured Total Cell Count for these entries.
System: HEK-293T
assay procedure: Multiplex assay against HEK293T
Assay type: toxicity, cell-based
cond: human, 48 h, 1 µM, compound concentration 1 uM, replicate 2
Lab note: write the figure by itself, no unit.

### Prompt Consider the compound shown here: O=C(Nc1ccc(-n2nc(-c3cccnc3)cc2C(F)(F)F)cn1)c1ccc(-c2ccccc2)c(F)c1 What is its recorded Total Cell Count?
### Response 420

### Prompt Also CNc1cc(Oc2cc(C(=O)Nc3cc(N4CCN(C)CC4)cc(C(F)(F)F)c3)ccc2C)ncn1 ?
### Response 421

### Prompt Also CN1CCC(=C2c3ccccc3CC(=O)c3sccc32)CC1.O=C(O)/C=C/C(=O)O [KETOTIFEN FUMARATE] ?
### Response 468

### Prompt Also COc1cc(N2CCN(C)CC2)ccc1Nc1ncc2c(n1)N(C)c1ccccc1C(=O)N2C ?
### Response 357

### Prompt Also CCOc1cc(C(=O)N2CCC(N3CCN(C)CC3)CC2)ccc1Nc1ncc2c(n1)N(C1CCCC1)c1ccccc1C(=O)N2C ?
### Response 239

### Prompt Also CN(C)C(=O)C(CCN1CCC(O)(c2ccc(Cl)cc2)CC1)(c1ccccc1)c1ccccc1.Cl [LOPERAMIDE HYDROCHLORIDE] ?
### Response 305

### Prompt Also O=C1N/C(=N/c2ccccc2F)S/C1=C\c1ccc(C(=O)O)cc1 ?
### Response 299

### Prompt Also CCOC(=O)c1c(C)[nH]c2ccc3c(c12)CN1CCc2cc(OC)ccc2C1O3 (stereo unspecified) ?
### Response 226

### Prompt Also CCCS(=O)(=O)c1nc(NC2CC2)cc(-c2ccc3c(ccn3C3CC(C)(C)NC(C)(C)C3)c2)n1 ?
### Response 226

### Prompt Also CCN1CCN(Cc2ccc(Nc3ncc(F)c(-c4cc(F)c5nc(C)n(C(C)C)c5c4)n3)nc2)CC1.CS(=O)(=O)O ?
### Response 243

### Prompt Also Cl.O=c1c2cccn2c2ccccc2n1CCCN1CCC(c2ccc(Cl)cc2)CC1 ?
### Response 461

### Prompt Also O=C(Nc1ccc(-c2ccnc(Nc3ccc(N4CCOCC4)cc3)n2)cc1)[C@@H]1CCCN1 ?
### Response 495

### Prompt Also CN1C2CCC1CC(OC(c1ccc(F)cc1)c1ccc(F)cc1)C2.Cl (stereo unspecified) ?
### Response 565

### Prompt Also S=C(NCCCc1c[nH]cn1)NCCCN(Cc1ccc(Cl)c(Cl)c1)c1ccc(Br)cn1 ?
### Response 234

### Prompt Also O=C(Cc1ccc(-c2ccc(OCCN3CCOCC3)cc2)cn1)NCc1ccccc1 ?
### Response 213

### Prompt Also Cl.Oc1ccc2c3c1O[C@H]1c4[nH]c5c(c4C[C@@]4(O)[C@@H](C2)N(CC2CC2)CC[C@]314)C[C@@]1(O)[C@H]2Cc3ccc(O)c4c3[C@@]1(CCN2CC1CC1)[C@H]5O4 ?
### Response 260

### Prompt Also CCCn1c(=O)c2[nH]c(-c3cnn(Cc4cccc(C(F)(F)F)c4)c3)nc2n(CC)c1=O ?
### Response 506

### Prompt Also Cc1cn(-c2cc(NC(=O)c3ccc(C)c(Nc4nccc(-c5cccnc5)n4)c3)cc(C(F)(F)F)c2)cn1 ?
### Response 337

### Prompt Also CCn1c(=O)c(-c2ccc(-c3cncs3)cc2Cl)cc2cnc(Nc3ccc(N4CCN(C)CC4)cc3)nc21 ?
### Response 591

### Prompt Also CCOc1cc2ncc(C#N)c(Nc3ccc(OCc4ccccn4)c(Cl)c3)c2cc1NC(=O)/C=C/CN(C)C ?
### Response 609

### Prompt Also Cc1ccc(C(=O)Nc2cccc(C(F)(F)F)c2)cc1Nc1nc(-c2cccnc2)nc2c1cnn2C ?
### Response 230
